assay: in vitro; details: human, hek293t cells
quantityKind: viability at 48 h, 25 µM (%)
Give just the numeric value; % need not be written.

Record excerpt, results attached:
| molecule | viability at 48 h, 25 µM / % |
| --- | --- |
| CC(Cl)C(=O)N1CCN(CC(F)(F)C(F)F)CC1 (stereo not drawn) [7-J07] | 96.1 |
| C=CC(=O)N1CCC(C(=O)N2CCC(Cc3ncon3)CC2)CC1 [2-J06] | 74.2 |
| CC(Cl)C(=O)N1CCCC(CC(=O)OC(C)(C)C)CC1 (stereo not drawn) [6-P18] | 93.9 |
| C=CC(=O)Nc1ccc(C(=O)N2CCC(C(C)C)CC2)cc1 [3-B15] | 27.5 |
| C=CC(=O)NC[C@H]1CCCN1S(C)(=O)=O [1-H07] | 99.1 |

Please examine the following record next.
Can you share its viability at 48 h, 25 µM? I mean this molecule: C=CC(=O)NC(c1nc(C)cs1)C(F)(F)F (stereo not drawn) [2-I17]
102

----------
assay: in vitro; details: human, hek293t cells
Note to self: use 1.0 only for viability at 48 h, 25 µM readings below 80%; a reading exactly at 80% still gets 0.0.

Previously resolved entries follow.
| molecule | assignedCategory |
| --- | --- |
| CC(Cl)C(=O)N(C)C1CCCCC1 (stereo not shown) | 0.0 |
| Cc1cccc(NC(=O)c2ccccc2NC(=O)CCl)c1 | 1.0 |

Is it true that viability at 48 h, 25 µM reported for "C=CC(=O)NCc1nc(OC)cc(OC)n1" is less than 80%?
0.0

Thanks! And "O=C(CCl)N(Cc1ccco1)c1ccccc1" ?
1.0

Thanks! And COc1ccccc1CNC(=O)C(C)Cl (stereo not shown) ?
1.0

Thanks! And "CC1CCN(Cc2csc(NC(=O)CCl)n2)CC1" ?
1.0

----------
test: in vitro; details: human, hek293t cells
quantityKind: viability at 48 h, 25 µM (%)
Give just the numeric value; % need not be written.

Record excerpt, results attached:
| compound | observedResult |
| --- | --- |
| C=CC(=O)NC(C)c1cnc(C(F)(F)F)s1 (centres unmarked) [2-A05] | 73.5 |
| COc1ccc(C=C(C#N)C(=O)Nc2c(C)cccc2C)cc1OC [8-A17] | 82.9 |
| C=CC(=O)Nc1cnn(C2CCCC2)c1 [3-O21] | 70.5 |
| CN(CC(=O)Nc1cccc(Cl)c1)C(=O)CCl [5-F18] | 0.687 |
| COc1cc(CN(C(=O)CCl)C2CCCOC2)ccc1C (centres unmarked) [5-E12] | 0.549 |
| N#CC(C(=O)CCl)=C1NC(=O)c2ccccc2N1 [10-P14] | 110 |
| COc1cc(C=C(C#N)C(=O)NCc2ccccc2)cc2c1OCCO2 [9-I10] | 118 |
| Cc1ccccc1N1C(=O)CSC1=C(C#N)C(=O)N1CCCCC1 [8-B12] | 113 |
| CC(Cl)C(=O)N1CCCC(CNC(=O)Nc2ccc(F)cc2)C1 (centres unmarked) [6-J22] | 105 |
| O=C(CCl)NSc1ccc([N+](=O)[O-])cc1 [4-P13] | 3.88 |

Can you share its viability at 48 h, 25 µM? I mean this compound: COCCNC(=O)C(C#N)=Cc1cccc2ccccc12 [8-L12]
91.8

Thanks! And CCN(CC)S(=O)(=O)c1cc(NC(=O)C(C)Cl)ccc1C (centres unmarked) [4-P09] ?
69.6

Thanks! And C=CC(=O)N1CCC(c2nc(C3CCC3)no2)CC1 [2-O04] ?
84.1

Thanks! And C=CC(=O)N1CCC(n2ncc3ccccc32)CC1 [1-K22] ?
94.9

Thanks! And COc1cc(NC(=O)CCl)c(Cl)cc1C(=O)O [4-M17] ?
1.05

Thanks! And C=CC(=O)N1CCC(C(=O)Nc2n[nH]c3cc(C#N)c(C)cc23)CC1 [3-J18] ?
90.3

----------
assay: in vitro; settings: human, hek293t cells
quantityKind: viability at 48 h, 25 µM (%)
Give just the numeric value; % need not be written.

Record excerpt, results attached:
| compound | viability at 48 h, 25 µM / % |
| --- | --- |
| Cc1cn2c(C=C(C#N)C(=O)Nc3c(C)cccc3C)c(C)nc2s1 | 94.4 |
| C=CC(=O)N1CCCC1Cn1c(C)nc2ccccc21 (centres unmarked) | 149 |
| C=CC(=O)NCc1ccc(C(=O)N2CCC(c3nnc(C)o3)CC2)cc1 | 87.6 |
| Cc1ccc(C=C(C#N)C(=O)NCc2ccco2)o1 | 95.3 |

Please examine the following record next.
Can you share its viability at 48 h, 25 µM? I mean this compound: COc1ccc(NC(=O)C(C)Cl)c([N+](=O)[O-])c1 (centres unmarked)
90.1

----------
experiment: in vitro; conditions: human, hek293t cells
Classification field. Basis: viability at 48 h, 25 µM. Definitions: low value: < 60%; medium value: ≥ 60% and < 90%; high value: ≥ 90%

Previously resolved entries follow.
| compound | assignedCategory |
| --- | --- |
| C=CC(=O)NCc1cccc(C(C)(F)F)c1 [3-O22] | high value |
| C=CC(=O)NC1(Cc2nnc3ccccn23)CCCCC1 [2-L03] | medium value |
| COc1ccc(C=C(C#N)C(=O)Nc2ccc(C)cc2)cc1 [9-A19] | high value |
| O=C(CCl)Nc1cc(Cl)c(Cl)cc1Cl [4-B06] | low value |
| C=CC(=O)N1CCC(C(=O)Nc2ccc(N)c([N+](=O)[O-])c2)CC1 [3-E20] | low value |
| C=CC(=O)NCc1ccnn1C [1-H20] | low value |

Lab log: Cn1ccc(C(=O)CCl)c1 [10-D08] — assign viability at 48 h, 25 µM category
low value

Thanks! And N#CC(=Cc1cn2cc(Cl)ccc2n1)C(=O)NC1CCCC1 [9-P15] ?
high value

Thanks! And Cc1cccc(CC(=O)CCl)c1 [10-I19, 1-chloro-3-(3-methylphenyl)propan-2-one] ?
medium value

Thanks! And CN(Cc1ccc(N(C)C)cc1)C(=O)CCl [5-F06] ?
low value

Thanks! And CC(Cl)C(=O)NCc1conc1C1CCC1 (stereo not shown) [5-L21] ?
high value

Thanks! And C=CC(=O)NCC1(OC)CCC(C)CC1 (stereo not shown) [1-P08] ?
medium value

Thanks! And CCc1cc(SC#N)cc(CC)c1NC(=O)CCl [4-J12] ?
medium value

----------
assay: in vitro; settings: human, hek293t cells
Note to self: use TRUE only for viability at 48 h, 25 µM readings below 90%; a reading exactly at 90% still gets FALSE.

Previously resolved entries follow.
| compound | assignedCategory |
| --- | --- |
| CCCn1c(C)cc(C=C(C#N)C(=O)N2CCCCC2)c1C [9-D11] | FALSE |
| N#CC(=Cc1cccs1)C(=O)Nc1ccccc1Cl [9-L11] | FALSE |
| C=CC(=O)N1CCC(Cn2nc(C)cc2C)CC1 [2-C17] | FALSE |

Is it true that viability at 48 h, 25 µM reported for C=CC(=O)N1CCN(c2nc(CC)ns2)CC1 [1-J20] is less than 90%?
TRUE

Thanks! And COc1ccc(C(NC(=O)CCl)C2CC2)cc1 (stereo not drawn) [4-K19] ?
TRUE

Thanks! And NC(=O)Cc1ccc(C(=O)CCl)s1 [10-A21] ?
TRUE

Thanks! And CC(Cl)C(=O)Nc1ccc(Cl)cc1Cl (stereo not drawn) [4-L17] ?
TRUE

Thanks! And C=CC(=O)N1CCC(O)(C(F)(F)C(N)=O)C1 (stereo not drawn) [2-C16] ?
FALSE

Thanks! And CC(Cl)C(=O)N[C@H]1CCO[C@@H]1c1nccn1-c1ccccc1 (mixture of isomers) [7-A12] ?
FALSE

Thanks! And O=C(CCl)Cc1c(F)cccc1Cl [10-D20] ?
TRUE

Thanks! And CCOc1ccc(S(=O)(=O)N2CCN(C(=O)CCl)CC2)cc1 [4-P15] ?
TRUE

Thanks! And C=CC(=O)NCc1ccccc1N1CCCC(C(N)=O)C1 (stereo not drawn) [3-L21] ?
TRUE

Thanks! And N#CC(=Cc1cccs1)C(=O)Nc1ccc(C(=O)O)cc1 [8-A04] ?
TRUE

Thanks! And O=C(O)C1CCN(C(=O)CCl)CC1 [6-O11] ?
FALSE

Thanks! And C=CC(=O)NCCc1nnc(C(C)C)s1 [2-L05] ?
TRUE

Thanks! And COc1cccc(NC(=O)C(C#N)=Cc2csnn2)c1 [8-K04] ?
TRUE

Thanks! And N#CC(=Cc1ccc2c(c1)OCCO2)C(=O)NCc1ccccc1 [8-H03] ?
FALSE

Thanks! And CCOc1cccc(N2CCN(C(=O)C(C)Cl)CC2)n1 (stereo not drawn) [7-G07] ?
TRUE
